- Study Target: Angiopoietin-1 receptor (Homo sapiens, UniProt Q02763)
- Sequence (Q02763 whole entry): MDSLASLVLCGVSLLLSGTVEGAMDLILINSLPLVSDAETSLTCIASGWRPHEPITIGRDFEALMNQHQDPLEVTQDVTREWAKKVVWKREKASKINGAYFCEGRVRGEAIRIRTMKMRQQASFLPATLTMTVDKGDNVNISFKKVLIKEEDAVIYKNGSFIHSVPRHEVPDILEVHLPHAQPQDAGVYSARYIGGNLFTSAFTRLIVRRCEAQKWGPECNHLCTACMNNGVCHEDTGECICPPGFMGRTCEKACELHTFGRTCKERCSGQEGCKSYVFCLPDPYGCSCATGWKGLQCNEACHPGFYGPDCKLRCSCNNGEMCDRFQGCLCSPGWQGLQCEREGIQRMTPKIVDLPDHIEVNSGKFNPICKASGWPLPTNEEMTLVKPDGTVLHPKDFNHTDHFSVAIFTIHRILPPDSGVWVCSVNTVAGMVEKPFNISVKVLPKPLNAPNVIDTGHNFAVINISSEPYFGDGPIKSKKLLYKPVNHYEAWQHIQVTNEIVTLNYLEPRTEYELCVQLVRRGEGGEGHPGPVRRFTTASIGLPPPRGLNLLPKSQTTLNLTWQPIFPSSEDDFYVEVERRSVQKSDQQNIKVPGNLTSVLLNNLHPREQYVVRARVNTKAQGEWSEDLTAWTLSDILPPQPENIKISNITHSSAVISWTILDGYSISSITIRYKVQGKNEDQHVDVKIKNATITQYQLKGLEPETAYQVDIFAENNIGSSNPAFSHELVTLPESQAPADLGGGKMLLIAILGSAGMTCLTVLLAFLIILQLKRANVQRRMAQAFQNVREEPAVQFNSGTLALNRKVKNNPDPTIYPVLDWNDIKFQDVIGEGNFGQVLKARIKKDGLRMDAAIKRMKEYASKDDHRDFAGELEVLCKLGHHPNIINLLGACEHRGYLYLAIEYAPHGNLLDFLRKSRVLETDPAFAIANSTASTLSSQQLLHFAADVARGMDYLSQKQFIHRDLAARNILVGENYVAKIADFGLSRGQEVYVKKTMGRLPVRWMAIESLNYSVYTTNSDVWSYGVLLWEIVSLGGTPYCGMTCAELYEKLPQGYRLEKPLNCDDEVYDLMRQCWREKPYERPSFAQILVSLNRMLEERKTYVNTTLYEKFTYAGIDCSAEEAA
Test Readout: pIC50
// pIC50: -log10(molar conc.)

Test system Angiopoietin-1 receptor (Homo sapiens, UniProt Q02763); read-out pIC50; what value for Cc1cccc(NC(=O)Nc2ccc(-c3nsc4ncnc(N)c34)cc2)c1 ? 6.38

Okay, now this compound:
Test system Angiopoietin-1 receptor (Homo sapiens, UniProt Q02763); read-out pIC50; what value for Cc1ccc(F)c(NC(=O)Nc2ccc(-c3nsc4ncnc(N)c34)cc2)c1 ? 7.72

---

- Study Target: Vascular endothelial growth factor receptor 1 (Homo sapiens, UniProt P17948)
- Sequence (P17948 whole entry): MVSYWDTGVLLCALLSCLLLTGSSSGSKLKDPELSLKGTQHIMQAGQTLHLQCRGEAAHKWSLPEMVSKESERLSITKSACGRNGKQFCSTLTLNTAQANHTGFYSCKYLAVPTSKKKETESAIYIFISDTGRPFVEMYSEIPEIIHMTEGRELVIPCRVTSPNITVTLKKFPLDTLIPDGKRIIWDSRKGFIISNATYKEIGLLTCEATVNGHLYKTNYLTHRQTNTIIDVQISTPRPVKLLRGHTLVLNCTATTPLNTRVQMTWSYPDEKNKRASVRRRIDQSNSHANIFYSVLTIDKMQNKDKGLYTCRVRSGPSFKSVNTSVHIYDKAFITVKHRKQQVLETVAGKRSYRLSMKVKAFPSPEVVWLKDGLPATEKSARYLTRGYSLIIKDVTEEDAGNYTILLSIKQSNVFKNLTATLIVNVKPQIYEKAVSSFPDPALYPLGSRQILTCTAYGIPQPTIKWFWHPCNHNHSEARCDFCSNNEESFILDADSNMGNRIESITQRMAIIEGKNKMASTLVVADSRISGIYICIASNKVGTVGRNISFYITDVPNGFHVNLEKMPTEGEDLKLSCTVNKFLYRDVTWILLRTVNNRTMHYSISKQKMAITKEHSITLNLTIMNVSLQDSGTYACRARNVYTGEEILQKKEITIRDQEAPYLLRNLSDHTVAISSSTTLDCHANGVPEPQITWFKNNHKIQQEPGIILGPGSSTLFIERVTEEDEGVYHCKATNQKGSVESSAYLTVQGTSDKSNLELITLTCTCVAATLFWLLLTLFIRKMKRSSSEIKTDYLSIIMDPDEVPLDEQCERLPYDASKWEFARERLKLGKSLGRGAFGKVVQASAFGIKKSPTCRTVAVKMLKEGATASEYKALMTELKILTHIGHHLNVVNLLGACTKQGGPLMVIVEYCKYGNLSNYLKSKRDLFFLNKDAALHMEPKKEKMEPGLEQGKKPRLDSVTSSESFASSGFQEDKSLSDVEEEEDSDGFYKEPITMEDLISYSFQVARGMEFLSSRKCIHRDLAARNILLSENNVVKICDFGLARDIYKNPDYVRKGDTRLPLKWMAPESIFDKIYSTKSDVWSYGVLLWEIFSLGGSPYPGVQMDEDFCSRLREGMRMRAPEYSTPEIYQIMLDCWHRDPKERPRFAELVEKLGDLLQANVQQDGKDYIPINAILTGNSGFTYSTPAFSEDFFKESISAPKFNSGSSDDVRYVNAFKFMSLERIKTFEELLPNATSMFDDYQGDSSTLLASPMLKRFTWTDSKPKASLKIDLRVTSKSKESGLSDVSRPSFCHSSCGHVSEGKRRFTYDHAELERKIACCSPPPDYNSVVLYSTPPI
Test Readout: pIC50
// pIC50: -log10(molar conc.)

Test system Vascular endothelial growth factor receptor 1 (Homo sapiens, UniProt P17948); read-out pIC50; what value for Cc1cccc(NC(=O)Nc2ccc(-c3nsc4ncnc(N)c34)cc2)c1 ? 7.10
